assay protocol: Pharmacokinetic (PK) studies in Balb/C nude mice via intraperitoneal injection
assay setup: male, Balb/c nude, mouse, plasma, ip, 15 mg/kg, Calculated Concentration, IP 15 mg/kg, Balb/C nude mice, 0.5 h, individual mice
measure name: concentration at 0.5 h (ng/mL)
Enter your answer as a number in ng/mL; do not include the unit.

| compound | units | obs value |
| --- | --- | --- |
| COC(=O)c1ccc([C@H]2c3[nH]c4ccccc4c3C[C@H](C(=O)OC)N2C(=O)CCl)cc1 [Example K601, RSL3, reference compound] | ng/mL | 1.18 |

Return reported concentration at 0.5 h. Input compound: CN(C)C(=O)[C@H]1Cc2c([nH]c3ccccc23)[C@H](c2ccc([Si](C)(C)C)cc2)N1C(=O)CCl [Example 67]
90.6

---

assay protocol: Pharmacokinetic (PK) studies via intravenous infusion, Sprague-Dawley rat
Format: in vivo
assay setup: male, plasma, 1 hour-IV infusion 2 mg/kg, 1.5 hr, one rat
measure name: concentration at 1.5 h (ng/mL)
Enter your answer as a number in ng/mL; do not include the unit.

Return reported concentration at 1.5 h. Input molecule: COC(=O)[C@H]1Cc2c([nH]c3ccccc23)[C@H](c2ccc(S(=O)(=O)N[C@]34C[C@H]5C[C@H](C[C@H](C5)C3)C4)cc2)N1C(=O)CCl [Example 24]
2.18

---

Test system: Panc 12
assay protocol: Cell proliferation assay, pancreatic cancer cell line Panc 12
Assay type: cell-based
assay setup: Cell Line Panc 9
measure name: pIC50
Worth noting: pIC50 values are minus log10 of concentrations stated in mol/L.

Return reported pIC50. Input compound: CCC[C@H]1Cc2c([nH]c3ccccc23)[C@H](c2ccc(N3CCOCC3)cc2)N1C(=O)CCl [Example 118]
8.19

---

assay protocol: in vivo
assay setup: male, Balb/c nude, mouse, ip, 15 mg/kg
measure name: AUC(0-inf) (ng·h/mL)
Enter your answer as a number in ng·h/mL; do not include the unit.

Return reported AUC(0-inf). Input compound: COC(=O)[C@H]1Cc2c([nH]c3ccccc23)[C@H](c2ccc(C(=O)OC(C)(C)C)cc2)N1C(=O)CCl [Example 1]
132

---

assay protocol: Whole blood stability, mouse
Assay type: in vitro ADME
assay setup: 30 min
measure name: Whole Blood Stability % Remaining at 37° C. Mouse (%)

(a) COC(=O)c1ccc([C@H]2c3[nH]c4ccc(F)cc4c3C[C@H](C(=O)OC)N2C(=O)CCl)cc1
(b) COC(=O)c1ccc([C@H]2c3[nH]c4ccccc4c3C[C@H](C(=O)O)N2C(=O)CCl)cc1
Hey, which is lower on measured Whole Blood Stability % Remaining at 37° C. Mouse, a or b ? Record your answer as the label of the chosen record.
a

(1) COC(=O)[C@H]1CC2c3ccccc3NC2[C@H](c2ccc(C(=O)OC(C)(C)C)cc2)N1C(=O)C(F)(F)Cl (stereo partly drawn)
(2) COC(=O)[C@H]1Cc2c([nH]c3ccccc23)[C@H](c2ccc(OC(=O)C(C)(C)C)cc2)N1C(=O)CCl
Hey, which is lower on measured Whole Blood Stability % Remaining at 37° C. Mouse, 1 or 2 ? Record your answer as the label of the chosen record.
2

(I) COC(=O)[C@H]1Cc2c([nH]c3ccccc23)[C@H](c2ccc(S(=O)(=O)N(C)C)cc2)N1C(=O)CCl
(II) C[C@H]1Cc2c([nH]c3ccccc23)[C@H](c2ccc(N3CCOCC3)cc2)N1C(=O)CCl
Hey, which is lower on measured Whole Blood Stability % Remaining at 37° C. Mouse, I or II ? Record your answer as the label of the chosen record.
I

---

Test system: SJSA-1
assay protocol: Cell viability assay (CellTiter Glo), osteosarcoma SJSA-1
Format: cell-based
assay setup: Homo sapiens, 96 hours
measure name: IC50 (nM)

| molecular string | IC50 / nM |
| --- | --- |
| COC(=O)[C@H]1Cc2c([nH]c3ccccc23)[C@H](c2ccc(OC(=O)C(C)(C)C)cc2)N1C(=O)CCl | 157 |
| CC(C)OC(=O)[C@H]1Cc2c([nH]c3ccccc23)[C@H](c2ccc(C(=O)OC(C)(C)C)cc2)N1C(=O)CCl | 149 |

(I) COC(=O)[C@H]1Cc2c([nH]c3ccccc23)[C@H](c2ccc(C(=O)NC(C)(C)C)cc2)N1C(=O)CCl
(II) COC(=O)[C@H]1Cc2c([nH]c3ccccc23)[C@H](c2ccc(C(=O)NCCNC(=O)OC(C)(C)C)cc2)N1C(=O)CCl
(III) COC(=O)[C@H]1Cc2c([nH]c3ccccc23)[C@H](c2ccc(S(=O)(=O)N[C@]34C[C@H]5C[C@H](C[C@H](C5)C3)C4)cc2)N1C(=O)CCl
Order the items by recorded IC50; the first position goes to the largest value. Returns: the labels listed in the requested order.
II, I, III
(II: 200 nM, I: 69 nM, III: 13 nM)

---

Test system: A549
assay protocol: Cell viability assay, A549 cells
Type: cell-based
assay setup: Homo sapiens, A549, A549; read-out: IC50 for A549
pIC50: −log10 of the molar value.
measure name: pIC50

(a) C[C@H]1Cc2c([nH]c3ccc(Cl)cc23)[C@H](c2ccc(N3CCOCC3)cc2)N1C(=O)CCl [Example 120]
(b) COC(=O)c1ccc([C@H]2c3[nH]c4ccc(Cl)cc4c3C[C@H](C(=O)OC)N2C(=O)CCl)cc1 [Example 93]
Hey, which is lower on measured pIC50, a or b ? Record your answer as the label of the chosen record.
a

---

assay protocol: Whole blood stability, mouse
Type: in vitro ADME
assay setup: 60 min
measure name: Whole Blood Stability % Remaining at 37° C. Mouse (%)

The examples below pair each entry with its known result.
| compound | obs value |
| --- | --- |
| COC(=O)[C@H]1Cc2c([nH]c3ccccc23)[C@H](c2ccc(S(=O)(=O)N[C@]34C[C@H]5C[C@H](C[C@H](C5)C3)C4)cc2)N1C(=O)CCl | 37.0 |
| COC(=O)[C@H]1Cc2c([nH]c3ccccc23)[C@H](c2ccc(C(=O)N(C)C)cc2)N1C(=O)CCl | 30.5 |

(P) COC(=O)c1ccc([C@H]2c3[nH]c4cccc(Br)c4c3C[C@H](C(=O)OC)N2C(=O)CCl)cc1
(Q) O=C(O)c1ccc([C@H]2c3[nH]c4ccccc4c3C[C@H](C(=O)O)N2C(=O)CCl)cc1
Hey, which is lower on measured Whole Blood Stability % Remaining at 37° C. Mouse, P or Q ? Record your answer as the label of the chosen record.
P
(P: 0.0%, Q: 67.9%)

(I) COC(=O)[C@H]1Cc2c([nH]c3ccc(Br)cc23)[C@H](c2ccc(C(=O)OCC3CC3)cc2)N1C(=O)CCl
(II) CC[C@H]1Cc2c([nH]c3ccccc23)[C@H](c2ccc(N3CCOCC3)cc2)N1C(=O)CCl
Which value of Whole Blood Stability % Remaining at 37° C. Mouse is numerically greater: that of I or that of II ? Record your answer as the label of the chosen record.
II
(II: 45.8%, I: 0.0%)

(A) COC(=O)c1ccc([C@H]2c3[nH]c4c(Br)cccc4c3C[C@H](C(=O)OC)N2C(=O)CCl)cc1
(B) C[C@H]1Cc2c([nH]c3ccccc23)[C@H](c2ccc(S(=O)(=O)N[C@]34CC5C[C@H](C[C@H](C5)C3)C4)cc2)N1C(=O)CCl
(C) COC(=O)[C@H]1Cc2c([nH]c3ccccc23)[C@H](c2ccc(C(=O)NCC3CC3)cc2)N1C(=O)CCl
Put the compounds in ascending order of Whole Blood Stability % Remaining at 37° C. Mouse. Returns: the labels listed in the requested order.
A, C, B

---

System: MG-63
assay protocol: Cell proliferation assay, MG-63 (Table 25)
Format: cell-based
assay setup: Homo sapiens, MG-63, Cell Line MG-68
pIC50: −log10 of the molar value.
measure name: pIC50

Report measured pIC50 on MG-63; entry: CCCC[C@H]1Cc2c([nH]c3ccccc23)[C@H](c2ccc(N3CCOCC3)cc2)N1C(=O)CCl [Compound 240]
< 5.52

---

assay protocol: PK profile, IV plasma concentration and PK parameters
Type: in vivo
assay setup: Balb/C nude, mouse, 5 mg/kg IV, BID q12, post 2nd dose, 0.5 h, 30% Kolliphor EL in water
Method: The PK profiles of compounds 148, 149, 150, 156 and 169 are shown below. Compound 156 was formulated in 30% Kolliphor EL (Cremophor EL) in water and compounds 148, 149, 150 and 169 were formulated in 30% Kolliphore EL with 1% poloxamar 407 in water. All compounds were dosed at 5 mg/kg. Blood samples were collected at various time points and analyzed using the method described above.
measure name: concentration at 0.5 h (ng/mL)
Enter your answer as a number in ng/mL; do not include the unit.

Return reported concentration at 0.5 h. Input molecule: `C#CC(=O)N1[C@@H](CCCC)Cc2c([nH]c3c(F)cc(F)cc23)[C@@H]1c1ccc(F)cc1`
984
